# Tested on: DLD-1 colon
# PROTOCOL DETAILS: NCI tumour cell line growth inhibition, 48 h
OBSERVED PROPERTY: TGI

Batch of 2 compounds: report TGI for each.
1. CC(=O)NC(CCCCN(Cc1ccccc1)C(=O)N(CCCl)N=O)C(=O)NCc1ccccc1 (stereo not given)
2. CC1=C2[C@H](c3ccccc3)C3C=CC2(c2ccccc23)N(C(=O)C(c2ccccc2)c2ccccc2)C1=O (stereo not given in full)

1. > 79 µM
2. > 100 µM

----------
Would you kindly list TGI for each of these compounds?
# System: MALME-3M melanoma
# PROTOCOL DETAILS: NCI tumour cell line growth inhibition, 48 h

Here's what some known entries look like.
COMPOUND: O=C(Nn1cnn2c(=O)c3ccccc3nc2c1=O)c1ccccc1
OBSERVED PROPERTY: TGI
REPORTED RESULT: > 100 µM
//
COMPOUND: O=C1NC(S(=O)(=O)O)=NNC12c1ccccc1-c1ccccc12
OBSERVED PROPERTY: TGI
REPORTED RESULT: > 10 µM
//
COMPOUND: COC(=O)C(=O)C(C(=O)C(=O)Nc1ccc(C)cc1)c1nc2ccc(C(=O)c3ccccc3)cc2[nH]c1=O (stereo not given)
OBSERVED PROPERTY: TGI
REPORTED RESULT: > 100 µM
//
COMPOUND: C=C1C(=O)OC2C1C(OC(=O)/C(C)=C\C)CC1(CO1)C1C(O)C=C(C)C21O (stereo not given)
OBSERVED PROPERTY: TGI
REPORTED RESULT: 7.65 µM
//
COMPOUND: CC(Oc1ccccc1Cl)C(=O)NN1C(=O)CSC1c1ccc(Cl)cc1 (stereo not given)
OBSERVED PROPERTY: TGI
REPORTED RESULT: 93.4 µM

Batch lookup, TGI per entry.
1. O=c1c(-c2ccc(O)cc2)coc2cc(OC3OC(CO)C(O)C(O)C3O)cc(O)c12 (stereo not given)
2. COC(=O)C(C(=O)C(=O)Nc1ccc(OC)cc1[N+](=O)[O-])c1nc2cc(C)c(C)cc2[nH]c1=O (stereo not given)
3. CC(C)CN(CC#N)CC(C)C
4. CN(C)CCNC(=O)c1cccc2ncc(-c3ccccc3)nc12
5. COc1cc2c(c(OC(C)=O)c1OC(C)=O)-c1ccc(SC)c(=O)cc1C(NC(C)=O)CC2 (stereo not given)

1: > 100 µM; 2: > 100 µM; 3: > 100 µM; 4: 26.5 µM; 5: > 100 µM

----------
# Tested on: UACC-62 melanoma
# PROTOCOL DETAILS: NCI tumour cell line growth inhibition, 48 h
Please provide measured GI50 for the entries that follow.

Example entries and their recorded answers appear below.
MOLECULE: CN1CCN(Cc2ccc(NC(=O)c3cncc(C#Cc4cnn5ccccc45)c3)cc2C(F)(F)F)CC1
SYSTEM: UACC-62 melanoma
OBSERVED PROPERTY: GI50
REPORTED RESULT: 996 nM
//
MOLECULE: CC(C)CCC(=O)[C@@H](C)[C@H]1[C@@H](OC2OCC(O)C(O)C2NS(C)(=O)=O)C[C@H]2[C@@H]3CC=C4C[C@@H](O)CC[C@]4(C)[C@H]3CC[C@]12C (some centres undefined)
SYSTEM: UACC-62 melanoma
OBSERVED PROPERTY: GI50
REPORTED RESULT: 790 nM
//
MOLECULE: COc1ccc(/C=C2\CC(C)CC3C2=NN(c2ccccc2)C3c2ccc(OC)c(OC)c2)cc1OC (centres undefined)
SYSTEM: UACC-62 melanoma
OBSERVED PROPERTY: GI50
REPORTED RESULT: 4290 nM

Shifting focus to the molecule that follows.
Hello, please tell me recorded GI50 for this one: `O=S(=O)(Nc1ccc2ccccc2c1)c1ccc(-c2cnc(C3CC3)o2)cc1`
914 nM

Hey, just so you know, these numbers are from PubChem BioAssay (NCI).
